- test: Cellular Toxicity (caspase-3) HUV-EC-C (AID 656);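 further: cells exposed to compound for 16 h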
- conditionDetails: HUV-EC-C cells, caspase-3 activation (apoptosis); series mostly up to 92.2 µM
Activity calls are given as the source filed them. The call rests on the fitted dose curve; in most records, active means well fitted curve in the direction sought with a large enough effect; inconclusive means small, poorly fitted or top-dose-only effect, or another doubt; inactive means no such curve, though single readings can be large or run the other way.

compound | outcome
CC(C)COC(=O)COc1cc(Cl)c(Cl)cc1Cl | inactive
CCCCOC(=O)COc1ccc(Cl)cc1Cl | inactive
CCCCC(CC)COC(=O)COc1ccc(Cl)cc1Cl (centres undefined) | inactive
O=[N+]([O-])c1cccc(I)c1 | inactive
c1ccc(SCCSc2ccccc2)cc1 | inactive
O=C=Nc1ccc(Cl)c(Cl)c1 | inactive
C=Cc1cccc(C)c1 | inactive
CCCCC(CC)COCCCN (centres undefined) | inactive
S=C(NC1CCCCC1)NC1CCCCC1 | inactive
c1ccc(COCc2ccccc2)cc1 | inactive
CC(=O)OC1CC(C)OC(C)O1 (centres undefined) | inactive
COc1cc(-c2ccc(N=C=O)c(OC)c2)ccc1N=C=O | inactive
Nc1ccc(N=Nc2ccccc2)c(N)c1 | inactive
CC(/C=C/C=C(C)/C=C/C(=O)O)=C\C=C\C=C(C)\C=C\C=C(C)\C=C\C(=O)O | inactive

* * *

- test: Cell Viability - LYMP2-019 (AID 973);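 further: cells exposed to compound for 24 h at 37 °C; nearly all actives have a fitted effect of over 55% in size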
- conditionDetails: LYMP2-019 lymphoblastoid cell line viability; series mostly up to 92.2 µM
Records with an inconclusive call do not appear. The source made the active and inactive calls. Calls come from the whole dose curve; as a rule, active = well fitted cell-killing curve with a large enough effect; inconclusive = small, poorly fitted or top-dose-only effect; inactive = flat fitted curve, though single readings scatter.

compound | outcome
c1cc2c3c(c1)ccc1cccc(c13)C2 | inactive
CC(=O)OC(C(=O)c1ccccc1)c1ccccc1 (stereo not drawn) | inactive
CCCC(=O)OC(=O)CCC | inactive

* * *

- assayedSystem: Cytochrome P450 1A2 (Homo sapiens) (UniProt P05177)
- Sequence (P05177 whole entry, looked up): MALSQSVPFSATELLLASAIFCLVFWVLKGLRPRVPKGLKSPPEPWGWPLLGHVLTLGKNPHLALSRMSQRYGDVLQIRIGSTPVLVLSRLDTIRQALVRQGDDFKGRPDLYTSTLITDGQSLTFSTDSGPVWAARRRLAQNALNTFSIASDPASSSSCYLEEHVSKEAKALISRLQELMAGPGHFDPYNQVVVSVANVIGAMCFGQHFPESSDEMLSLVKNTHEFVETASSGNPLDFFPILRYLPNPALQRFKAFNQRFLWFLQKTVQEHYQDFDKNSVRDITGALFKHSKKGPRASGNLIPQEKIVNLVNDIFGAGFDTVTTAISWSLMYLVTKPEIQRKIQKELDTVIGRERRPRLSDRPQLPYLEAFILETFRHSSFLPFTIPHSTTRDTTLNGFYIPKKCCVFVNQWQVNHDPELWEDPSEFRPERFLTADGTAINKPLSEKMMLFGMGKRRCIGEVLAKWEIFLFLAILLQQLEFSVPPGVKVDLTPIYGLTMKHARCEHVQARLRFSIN
- test: p450-cyp1a2 (AID 410)
- conditionDetails: recombinant CYP1A2, luciferin-ME demethylation, luminescence; series mostly up to 11.4 µM
Inconclusive results are not listed. The source made the active and inactive calls. Calls come from the whole dose curve.
Labels: Y (active), N (inactive)

substanceSmiles | classLabel
CCCCSCc1nc2nc(Cl)c(Cl)nc2[nH]1 | Y
CC(C)=NNc1ncnc2nc[nH]c12 | Y
O=c1c(-c2ccccc2)nc2cnc(N3CCNCC3)nc2n1Cc1ccc(F)cc1 | Y
O=C(O)[C@@H]1[C@@H](C(=O)NCc2ccncc2)[C@@H]2C=C[C@@H]1O2 | Y
CC(C)N(Cc1ccccc1)S(=O)(=O)c1n[nH]c(C(C)(C)C)n1 | N
CC1(C)O[C@H]2[C@@H](c3[nH]nc4c(=O)[nH]c(=O)[nH]c34)OC[C@H]2O1 | N
CN(C)C(=O)/N=N\C(=O)N(C)C | N
O=C(O)[C@@H](S)[C@H](S)C(=O)O | N
O=C1OC(=O)[C@@H]2[C@@H]1[C@@H]1CC[C@H]2O1 | N
O=C(O)C[C@H](Cc1ccc2c(c1)OCO2)C(=O)O | N
CC(=O)Nc1ccc2c(c1)C(=Nc1ccc(C(=O)O)cc1)c1ccccc1-2 | Y
CCOC(=O)[C@]1(CC(=O)O)CCCC1=O | N
O=C1COC(c2ccccc2O)=NN1CCCN1CCCC1 | N
O=[N+]([O-])c1ccc(CSCc2ccc(Cl)cc2)cc1 | Y
OCCCN=C1CCCCC1 | N
COc1ccc2c3c([nH]c2c1)[C@H]1C[C@@H]2[C@@H](C[C@@H](O)[C@H](OC)[C@H]2C(=O)O)CN1CC3 | N
[N-]=[N+]=Nc1ccc(C(=O)CSC[C@@H](NC(=O)CC[C@@H](N)C(=O)O)C(=O)NCC(=O)O)cc1 | N
Clc1ccc2c(N3CCC(CCC4CCN(c5ncnc6cc(Cl)ccc56)CC4)CC3)ncnc2c1 | Y
C[C@]12CC[C@H]3c4ccc(O)cc4CC[C@@H]3[C@H]1C/C(=N/O)[C@H]2O | N
CC(C)CSC[C@@H]1O[C@H](n2cnc3c(N)nccc32)[C@H](O)[C@@H]1O | N
C[C@@H]1O[C@@H](n2cc(F)c(=O)[nH]c2=O)[C@H](O)[C@@H]1O | N
NCCSC[C@H](N)C(=O)O | N
C[Si](C)(c1ccc(C(=O)O)cc1)c1ccc(C(=O)O)cc1 | N
